System: human PKK mRNA
ASSAY OVERVIEW: Antisense inhibition of human PKK mRNA in HepaRG cells, 1,000 nM, MOE/deoxy/cEt oligonucleotides (Example 3)
Assay type: cell-based
EXPERIMENTAL PARAMETERS: HepaRG cells, 1,000 nM antisense oligonucleotide, Table 29
Strand notation (5' to 3'): a small letter for the sugar, then the base; units joined by * are phosphorothioate-linked, units joined directly phosphodiester-linked; [ ] holds rarer units or linkages, { } end groups; capitals alone tell only the bases. e = 2'-O-(2-methoxyethyl) (MOE); k = constrained ethyl (cEt); [5mC] = 5-methylcytosine; d = 2'-deoxy (DNA)
REPORTED METRIC: % inhibition (%)
Numeric only. Scale: %

548542 (antisense eG*e[5mC]*kG*d[5mC]*d[5mC]*dA*dT*d[5mC]*d[5mC]*dT*dT*d[5mC]*dA*kA*kT*e[5mC]) [compound 548542]    7
548579 (eG*eG*kG*d[5mC]*dT*dA*dT*dA*dT*dT*dG*d[5mC]*d[5mC]*kA*kG*e[5mC]; antisense) [compound 548579]    46
548568 (eA*eT*kT*dG*dA*d[5mC]*dA*dA*d[5mC]*d[5mC]*dA*dT*d[5mC]*k[5mC]*kT*eA; antisense) [compound 548568]    27
548604 (eG*eT*kG*dG*dT*dG*dG*dG*dA*dT*dT*dG*dG*kT*kG*e[5mC]; antisense) [compound 548604]    22
548548 (antisense eG*e[5mC]*kT*dT*dG*dT*dA*dG*dA*dA*dG*dG*dG*kA*kT*eT) [compound 548548]    54
548557 (antisense eG*eT*kT*dA*d[5mC]*dT*d[5mC]*dT*dG*dT*dG*dA*dT*k[5mC]*k[5mC]*eA) [compound 548557]    81
548551 (antisense e[5mC]*eG*kG*d[5mC]*d[5mC]*dA*dA*dT*dG*dG*dG*dA*dA*kA*kG*eG) [compound 548551]    25
548577 (eA*eA*kT*d[5mC]*dT*dG*d[5mC]*dA*d[5mC]*d[5mC]*dT*dG*dG*k[5mC]*kA*eG; antisense) [compound 548577]    42

In the following, a different substance is considered.
(Q) Give its % inhibition value. Item: 548550 (antisense e[5mC]*e[5mC]*kG*dG*d[5mC]*d[5mC]*dT*dG*dG*dA*dT*dA*d[5mC]*kA*kG*e[5mC]) [compound 548550]
(A) 0

----------
Parameter: % inhibition. Scope: all listed entries.
Test system: human PKK mRNA
ASSAY OVERVIEW: Antisense inhibition of human PKK mRNA in HepaRG cells, 5,000 nM (Example 2)
Format: cell-based
EXPERIMENTAL PARAMETERS: human PKK mRNA in HepaRG cells; 5-10-5 gapmers; Table 14
Strand notation (5' to 3'): a small letter for the sugar, then the base; units joined by * are phosphorothioate-linked, units joined directly phosphodiester-linked; [ ] holds rarer units or linkages, { } end groups; capitals alone tell only the bases. e = 2'-O-(2-methoxyethyl) (MOE); [5mC] = 5-methylcytosine; d = 2'-deoxy (DNA)
Numeric only. Scale: %

Reference set, count: 5
547618 (antisense eA*e[5mC]*eT*eG*eT*d[5mC]*d[5mC]*dT*dA*dT*dA*dT*d[5mC]*dA*d[5mC]*eT*eG*eT*eA*e[5mC]) [compound 547618]    87
546870 (e[5mC]*eT*eG*eT*eA*d[5mC]*d[5mC]*dT*dA*dT*dA*dA*d[5mC]*dT*d[5mC]*eT*eA*eA*e[5mC]*eA; antisense) [compound 546870]    87
547617 (antisense e[5mC]*eT*eG*eT*e[5mC]*d[5mC]*dT*dA*dT*dA*dT*d[5mC]*dA*d[5mC]*dT*eG*eT*eA*e[5mC]*e[5mC]) [compound 547617]    91
531231 (eT*eA*eT*e[5mC]*eA*d[5mC]*dT*dG*dT*dA*d[5mC]*dT*dA*dG*dT*eT*eT*e[5mC]*e[5mC]*eT) [compound 531231]    85
547602 (antisense eT*e[5mC]*eA*e[5mC]*eT*dG*dT*dA*d[5mC]*d[5mC]*dT*dA*dT*dA*dA*e[5mC]*eT*e[5mC]*eT*eA) [compound 547602]    93

(Q) Give its % inhibition value. Item: 546854 (eT*eA*eA*e[5mC]*eA*dG*dT*dA*dT*d[5mC]*dA*d[5mC]*dT*dG*dT*e[5mC]*e[5mC]*eT*eA*eT; antisense) [compound 546854]
(A) 90

----------
Parameter: IC50. Scope: all listed entries.
Test system: human PKK mRNA
ASSAY OVERVIEW: Dose-dependent antisense inhibition of human PKK in HepaRG cells, 0.19-5.00 uM (Example 5)
Format: cell-based
EXPERIMENTAL PARAMETERS: HepaRG cells, 0.19-5.00 μM
Strand notation (5' to 3'): a small letter for the sugar, then the base; units joined by * are phosphorothioate-linked, units joined directly phosphodiester-linked; [ ] holds rarer units or linkages, { } end groups; capitals alone tell only the bases. e = 2'-O-(2-methoxyethyl) (MOE); [5mC] = 5-methylcytosine; d = 2'-deoxy (DNA)
Numeric only. Scale: nM

Reference set, count: 2
546753 (e[5mC]*eT*eG*eG*e[5mC]*dT*d[5mC]*dA*d[5mC]*dT*dA*dT*dA*dG*dG*e[5mC]*e[5mC]*e[5mC]*e[5mC]*eA; antisense) [compound 546753]    900
547617 (antisense e[5mC]*eT*eG*eT*e[5mC]*d[5mC]*dT*dA*dT*dA*dT*d[5mC]*dA*d[5mC]*dT*eG*eT*eA*e[5mC]*e[5mC]) [compound 547617]    700

In the following, a different substance is considered.
(Q) Fill in the recorded IC50 for this substance, with human PKK mRNA as test system: 546986 (e[5mC]*eA*eG*eG*eA*dT*dA*dG*dA*dA*d[5mC]*dT*dG*dA*dT*eG*eG*eT*e[5mC]*e[5mC]; antisense) [compound 546986]
(A) 1100

----------
Test system: human PKK mRNA
ASSAY OVERVIEW: Antisense inhibition of human PKK mRNA in HepaRG cells, 1,000 nM, MOE/deoxy/cEt oligonucleotides (Example 3)
Format: cell-based
EXPERIMENTAL PARAMETERS: Table 20; HepaRG cells, electroporation with 1,000 nM antisense oligonucleotide, approximately 24 hours; PKK mRNA by RT-PCR (RTS3454), relative to untreated control cells
Strand notation (5' to 3'): a small letter for the sugar, then the base; units joined by * are phosphorothioate-linked, units joined directly phosphodiester-linked; [ ] holds rarer units or linkages, { } end groups; capitals alone tell only the bases. e = 2'-O-(2-methoxyethyl) (MOE); k = constrained ethyl (cEt); [5mC] = 5-methylcytosine; d = 2'-deoxy (DNA)
Note to self: values exactly at 50% are Fulfilled. So % inhibition at or above 50% is Fulfilled, below is Not fulfilled.

# count of solved cases: 8
547907 (eA*eT*kT*dT*d[5mC]*dT*dG*dA*dA*dA*dG*dG*dG*k[5mC]*kA*e[5mC]; antisense) [compound 547907]    Not fulfilled
547865 (antisense eA*eA*kA*dA*dT*dT*dG*dA*d[5mC]*dT*d[5mC]*d[5mC]*dT*k[5mC]*kT*e[5mC]) [compound 547865]    Not fulfilled
547912 (eA*eT*k[5mC]*d[5mC]*dA*d[5mC]*dA*dT*d[5mC]*dT*dG*dA*dG*kA*kA*e[5mC]; antisense) [compound 547912]    Not fulfilled
547875 (antisense e[5mC]*eA*k[5mC]*dT*dG*d[5mC]*dT*dA*dA*d[5mC]*d[5mC]*dT*dT*kA*kG*eA) [compound 547875]    Fulfilled
547886 (e[5mC]*eG*kG*dT*dA*d[5mC]*dT*d[5mC]*dT*dG*d[5mC]*d[5mC]*dT*kT*kG*eT; antisense) [compound 547886]    Fulfilled
547916 (e[5mC]*e[5mC]*kT*dG*dG*d[5mC]*dA*dA*d[5mC]*dA*dT*d[5mC]*d[5mC]*kA*k[5mC]*eA; antisense) [compound 547916]    Fulfilled
547900 (eT*eG*kT*dA*d[5mC]*dT*dT*dT*dA*dA*dT*dA*dG*kG*k[5mC]*eA; antisense) [compound 547900]    Fulfilled
547885 (e[5mC]*eT*k[5mC]*dT*dG*d[5mC]*d[5mC]*dT*dT*dG*dT*dG*dA*kA*kA*eT; antisense) [compound 547885]    Not fulfilled

(Q) Would you say 547871 (antisense eG*e[5mC]*kT*dA*dA*d[5mC]*d[5mC]*dT*dT*dA*dG*dA*d[5mC]*kA*k[5mC]*eA) [compound 547871] shows % inhibition at minimum 50%?
(A) Fulfilled

(Q) Would you say 547909 (e[5mC]*e[5mC]*kA*dA*dT*dT*dT*d[5mC]*dT*dG*dA*dA*dA*kG*kG*eG; antisense) [compound 547909] shows % inhibition at minimum 50%?
(A) Fulfilled

(Q) Would you say 547881 (eA*eT*kT*d[5mC]*dT*dT*d[5mC]*dA*dA*d[5mC]*dA*d[5mC]*dT*kG*k[5mC]*eT; antisense) [compound 547881] shows % inhibition at minimum 50%?
(A) Not fulfilled

The values you see were collected from patent US11840686B2.
